- assayedTarget: TSPO (Homo sapiens, UniProt P30536)
- Construct: from tissue; host or cells: isolated human leukocytes (membranes)
- Sequence (P30536 whole entry): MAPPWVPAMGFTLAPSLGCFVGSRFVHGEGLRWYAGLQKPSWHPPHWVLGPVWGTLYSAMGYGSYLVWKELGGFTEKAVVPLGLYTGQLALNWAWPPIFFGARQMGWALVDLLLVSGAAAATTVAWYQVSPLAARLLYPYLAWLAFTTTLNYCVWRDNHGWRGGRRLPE
- assay: In vitro TSPO binding assay, competition with [3H]PK11195 in membrane of human leukocytes
parameterMeasured: Ki (nM)
Write down the numeric answer in nM and omit the unit.

Examples from the recorded data:
| structureString | parameterMeasured | unit | assayValue |
| --- | --- | --- | --- |
| CCc1cc(CC)n2nc(-c3ccc(F)cc3)c(CC(=O)N(CC)CCOC)c2n1 | Ki | nM | 0.19 |
| CCc1cc(CC)n2nc(-c3ccc(F)cc3)c(CC(=O)N(CC)CC)c2n1 | Ki | nM | 8.79 |

INPUT: Reported Ki, compound CCc1cc(CC)n2nc(-c3ccc(F)cc3)c(CC(=O)N(CC)c3ccccc3)c2n1 : ____
OUTPUT: 0.06
